Value source: PubChem BioAssay (NCI)

system: EKVX NSCLC; experiment: NCI-60 one-dose screen, 48 h (100 = growth as untreated, 0 = no growth, -100 = all killed); details: 10 µM unless noted
About 83,000 compounds went through this panel and 20% of them were active in at least one assay; those are over-represented in the sample as a whole.
ASSAY_ENDPOINT: growth (%)

[[record]]
compound = "O=C(Nc1ccc(Cl)cc1)Oc1c(Cl)c(Cl)c(Cl)c(Cl)c1Cl"
target = "EKVX NSCLC"
assay_endpoint = "growth"
unit_abbreviation = "%"
quantitative_result = 80.6

[[record]]
compound = "CC1(C)N=C(N)N=C(N)N1c1cccc(CCc2ccccc2)c1"
target = "EKVX NSCLC"
assay_endpoint = "growth"
unit_abbreviation = "%"
quantitative_result = 67.2

[[record]]
compound = "O=C1Nc2ccccc2/C1=C/c1cccn1C(=O)c1ccc(Cl)s1"
target = "EKVX NSCLC"
assay_endpoint = "growth"
unit_abbreviation = "%"
quantitative_result = 22.6

[[record]]
compound = "O=C(N/N=C\\c1ccccc1S(=O)(=O)O)N/N=C/c1ccccc1S(=O)(=O)O"
target = "EKVX NSCLC"
assay_endpoint = "growth"
unit_abbreviation = "%"
quantitative_result = 102

[[record]]
compound = "C=C(C)[C@@H]1CC[C@]2(C(=O)N3CCN(C)CC3)CC[C@]3(C)[C@H](CC[C@@H]4[C@@]5(C)CC[C@H](OC(=O)c6ccccc6C(=O)O)C(C)(C)[C@@H]5CC[C@]43C)[C@@H]12"
target = "EKVX NSCLC"
assay_endpoint = "growth"
unit_abbreviation = "%"
quantitative_result = 98.4

[[record]]
compound = "Cn1c(=O)c2[nH]c(SCC(=O)Nc3ccc(C(=O)/C=C/c4ccccc4Cl)cc3)nc2n(C)c1=O"
target = "EKVX NSCLC"
assay_endpoint = "growth"
unit_abbreviation = "%"
quantitative_result = 87.9

[[record]]
compound = "COc1ccc(C[n+]2c3ccccc3n3c4ccc(N)cc4ccc32)c(OC)c1OC"
target = "EKVX NSCLC"
assay_endpoint = "growth"
unit_abbreviation = "%"
quantitative_result = 49.3

[[record]]
compound = "Cc1ccc(S(=O)(=O)N2CCC(=O)c3ccccc32)cc1"
target = "EKVX NSCLC"
assay_endpoint = "growth"
unit_abbreviation = "%"
quantitative_result = 102

[[record]]
compound = "N#CC1=C(N)Oc2ccc3ccccc3c2C1c1ccc([N+](=O)[O-])cc1 (centres undefined)"
target = "EKVX NSCLC"
assay_endpoint = "growth"
unit_abbreviation = "%"
quantitative_result = 65.8

